Origin of values: patent US8784782B2

- system-name: hT1R1/hT1R3 umami receptor expressed in an HEK293 cell line (Homo sapiens, UniProt Q7RTX0+Q7RTX1)
- Construct: expressed in transfected cells; host or cells: HEK293 cell line derivative, hT1R1/hT1R3-HEK293-Gα15, clone I-17, mifepristone-induced
- Sequence (Q7RTX1 21-841): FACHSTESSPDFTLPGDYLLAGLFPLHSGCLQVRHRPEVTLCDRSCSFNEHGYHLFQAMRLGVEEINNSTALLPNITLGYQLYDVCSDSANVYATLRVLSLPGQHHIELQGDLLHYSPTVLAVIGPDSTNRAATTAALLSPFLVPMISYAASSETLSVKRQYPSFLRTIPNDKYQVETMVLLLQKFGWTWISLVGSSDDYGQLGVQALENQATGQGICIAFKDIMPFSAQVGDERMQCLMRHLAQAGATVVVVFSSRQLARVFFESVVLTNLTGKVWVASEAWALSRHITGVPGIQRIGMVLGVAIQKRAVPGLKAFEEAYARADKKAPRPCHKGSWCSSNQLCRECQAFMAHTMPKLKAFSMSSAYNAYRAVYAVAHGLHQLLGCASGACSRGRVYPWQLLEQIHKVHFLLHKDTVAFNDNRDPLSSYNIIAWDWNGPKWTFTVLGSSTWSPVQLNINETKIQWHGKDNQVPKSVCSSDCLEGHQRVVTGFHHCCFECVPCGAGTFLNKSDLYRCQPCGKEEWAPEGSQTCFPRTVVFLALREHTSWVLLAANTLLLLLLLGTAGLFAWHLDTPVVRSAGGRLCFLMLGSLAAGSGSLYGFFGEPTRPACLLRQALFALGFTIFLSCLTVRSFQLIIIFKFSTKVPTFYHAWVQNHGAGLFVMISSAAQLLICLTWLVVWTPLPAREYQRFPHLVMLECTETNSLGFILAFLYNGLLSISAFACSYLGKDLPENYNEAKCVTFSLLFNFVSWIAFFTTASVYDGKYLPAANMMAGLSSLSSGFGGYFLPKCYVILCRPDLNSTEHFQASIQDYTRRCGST
- Sequence (Q7RTX0 21-852): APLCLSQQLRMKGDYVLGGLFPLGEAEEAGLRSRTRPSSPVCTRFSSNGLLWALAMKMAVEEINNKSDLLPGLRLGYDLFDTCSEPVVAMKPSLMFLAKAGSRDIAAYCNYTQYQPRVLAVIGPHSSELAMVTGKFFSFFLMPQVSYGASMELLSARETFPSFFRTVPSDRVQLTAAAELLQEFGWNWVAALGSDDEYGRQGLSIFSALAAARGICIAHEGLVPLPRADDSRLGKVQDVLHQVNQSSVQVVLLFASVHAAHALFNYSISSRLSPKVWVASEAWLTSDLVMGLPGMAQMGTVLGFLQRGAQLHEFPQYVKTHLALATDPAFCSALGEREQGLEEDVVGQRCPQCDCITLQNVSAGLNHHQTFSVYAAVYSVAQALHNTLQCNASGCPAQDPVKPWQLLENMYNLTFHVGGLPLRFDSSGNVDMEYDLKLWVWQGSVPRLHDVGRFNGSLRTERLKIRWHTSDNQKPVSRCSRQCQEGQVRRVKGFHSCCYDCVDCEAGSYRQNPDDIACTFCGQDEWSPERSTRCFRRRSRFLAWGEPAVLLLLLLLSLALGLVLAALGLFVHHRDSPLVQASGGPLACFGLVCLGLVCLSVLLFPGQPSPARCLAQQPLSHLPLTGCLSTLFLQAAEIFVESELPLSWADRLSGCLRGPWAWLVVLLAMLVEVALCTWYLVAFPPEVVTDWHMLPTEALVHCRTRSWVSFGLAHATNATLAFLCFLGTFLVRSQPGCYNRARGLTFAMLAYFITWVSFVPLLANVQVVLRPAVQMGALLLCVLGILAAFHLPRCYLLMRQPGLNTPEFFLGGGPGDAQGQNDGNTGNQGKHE
- run-description: Umami taste enhancement activity assay (EC50 ratio vs. MSG, FLIPR)
- Assay type: cell-based
- reported-conditions: compound present at 0.1 μM
assay-metric: EC50 ratio (enhanced the effectiveness of monosodium glutamate)

See these solved cases before continuing.
>  <record-smiles>
Cc1cc(-c2nc(SCc3ccccn3)n[nH]2)c(C)o1

>  <readout-number>
2.1

$$$$
>  <record-smiles>
c1ccc(CSc2n[nH]c(-c3cc4ccccc4o3)n2)nc1

>  <readout-number>
2.88

$$$$
>  <record-smiles>
Cc1cc(-c2nc(SCCc3ccccn3)n[nH]2)oc1C

>  <readout-number>
2.66

$$$$

[a] COc1ccc(Cc2nc(SCc3ccccn3)n[nH]2)c(OC)c1
[b] Cc1cc(-c2nc(SCc3ccccn3)n[nH]2)oc1C
Task: Please compare: a and b . Report which one has the smaller EC50 ratio (enhanced the effectiveness of monosodium glutamate) value. Answer = label.
Output: a

---

- system-name: hT1R1/hT1R3 umami receptor expressed in an HEK293 cell line (Homo sapiens, UniProt Q7RTX0+Q7RTX1)
- Construct: expressed in transfected cells; host or cells: HEK293 cell line derivative, hT1R1/hT1R3-HEK293-Gα15, clone I-17, mifepristone-induced
- run-description: In vitro hT1R1/hT1R3 umami taste receptor activation assay (FLIPR, dose response)
- Format: cell-based
- reported-conditions: Table A, triazoles; read-out: Umami EC50
pEC50: −log10 of the molar value.
assay-metric: pEC50

See these solved cases before continuing.
>  <molecule>
c1ccc(-c2n[nH]c(SCc3ccccn3)n2)cc1 [Example A17]

>  <pEC50>
5.54

$$$$
>  <molecule>
Cn1c(Cc2ccsc2)nnc1SCc1ccc(Cl)cc1 [Example A27]

>  <pEC50>
5.10

$$$$
>  <molecule>
CCOc1ccccc1-c1n[nH]c(SCc2ccccn2)n1 [Example A19]

>  <pEC50>
5.19

$$$$
>  <molecule>
COc1ccccc1-c1n[nH]c(SCCc2ccccn2)n1 [Example A22]

>  <pEC50>
5.13

$$$$
>  <molecule>
Cc1cccc(-c2n[nH]c(SCc3ccccn3)n2)c1 [Example A8]

>  <pEC50>
6.03

$$$$

[P] COc1ccccc1-c1n[nH]c(SCc2ccccn2)n1 [Example A13]
[Q] c1ccc(CSc2nc(-c3cccc4c3OCO4)n[nH]2)nc1 [Example A11]
Task: Kindly identify which of P and Q has the larger recorded pEC50 value. Answer = label.
Output: Q

---

- system-name: hT1R1/hT1R3 umami receptor expressed in an HEK293 cell line (Homo sapiens, UniProt Q7RTX0+Q7RTX1)
- Construct: expressed in transfected cells; host or cells: HEK293 cell line derivative, hT1R1/hT1R3-HEK293-Gα15, clone I-17, mifepristone-induced
- run-description: Umami taste enhancement activity assay (EC50 ratio vs. MSG, FLIPR)
- Assay type: cell-based
- reported-conditions: Table A, @ 0.3 μM compound
assay-metric: Ec50 ratio (vs. MSG)

>  <record-smiles>
c1ccc(CSc2nc(-c3ccc4c(c3)OCO4)n[nH]2)nc1

>  <readout-number>
6.01

$$$$
>  <record-smiles>
COc1cc(OC)cc(-c2n[nH]c(SCc3ccccn3)n2)c1

>  <readout-number>
3.16

$$$$
>  <record-smiles>
COc1cc(OC)cc(-c2n[nH]c(SCCc3ccccn3)n2)c1

>  <readout-number>
4.84

$$$$

[a] CCOc1ccccc1-c1n[nH]c(SCc2ccccn2)n1
[b] COc1ccccc1-c1n[nH]c(SCc2ccccn2)n1
Task: Kindly identify which of a and b has the larger recorded Ec50 ratio (vs. MSG) value. Answer = label.
Output: b
(b: 7.36, a: 2.01)
